Listed variants paired with reported polymerase ribozyme fitness (log ratio)
B1: TPR t1 (parent)
chain: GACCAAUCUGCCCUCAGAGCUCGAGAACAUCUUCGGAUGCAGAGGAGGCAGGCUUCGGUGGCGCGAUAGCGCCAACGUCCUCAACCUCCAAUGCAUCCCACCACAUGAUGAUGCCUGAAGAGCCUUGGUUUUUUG

- Variants of: B1
- assay-explanation: polymerase ribozyme fitness, log enrichment relative to wild type (log ratio); higher = more active; in vitro selection for triplet polymerase activity
API doc: respond with a numeric literal and nothing else, no unit.

input-sequence	polymerase ribozyme fitness (log ratio)
GACCAAUCUGUCCUCAGAGCUCGAGAAGAUCUUCGGAUGCAGAGGAGGCAGGCUUCGGUGGCGCGAUAGCGCCAACGUCCUCCAUCUCCAAUGCAUCCCACCACAUGAUGAUGCCUGAAGAGCCUUGGUUUUUUG [C11U C28G A83C C85U]	-4.39
GACCAAUCUGCCCUCAGAGCUCGAGAACAUCUUCGGAUGCAGAGGAGGCAGGCUUUGGUGGCGCGAUAGCGCCAACGCCCUCAACCUCCAAUGCAUCCCACCACAUGAUGAUGCCUGAAGAGCCUUGGUUUUUUG [C56U U78C]	-0.427
GACCAAUCUGCCCUCAGAGCUCGAGAACAUCUUAGGAUGCAGAGGAGGCAGGCUUCGGUGGCGCGAUAGCGCCAACGUCCUAAACCUCCAAUGCAUCCCACCACAUGAUGAUGCCUGAAGAGCCUUGGUUUUUUG [C34A C82A]	-2.72
GACCAAUCUGCCCUCGGAGCUCGAGAACAUCUUCAGGUGCAGAGGAGGCAGGCUUCGGUGGCGCGAUAGCGCCAACGUCCUCAUCCUCCAAUGCAUCCCACCACAUGAUGAUGCCUGAAGGGCCUUGGUUUUUUG [A16G G35A A37G A84U A121G]	-3.58
GACCAAUGUGCCCUAAGAGUUCGAGAACAUCUUCGGAUGCAGAGGAGGCAGGCUUAUGUGGCGCGAUAGCGCCAACGUCCUCAACCUCCAAUGCAUCCCACCACAUGAUGAUGCCUGAAGAGCCUUGGUUUUUUG [C8G C15A C20U C56A G57U]	-1.84

Ask: Note down polymerase ribozyme fitness (log ratio) recorded for GACCAAUCUGCCCUCAGAGCUCGAGAACAUCUUCGGUUGCAGAGGAGGCAGGCUUCGGUGGCGCGAUAGCGCCUACGUCCUCAACCUCCAAUGCAUCCCACCACAUGAUGAUGCCUGAAGAGCCUUGGUUUUUUG [A37U A74U]
Result: -0.149

Ask: State its polymerase ribozyme fitness (log ratio): GACCAAUCUGCCCUCAGAGCUCGAGAACAUCUUCGGAUGCAGAGGAGGCAGGCUUCGGUGGCGCGAUAGCGCCAACGUCCUCAACCUCCAAUGAAUCCCACCACAUGAUGAUGCCUCAAGAGCCUUGGUUUUUUG [C94A G117C]
Result: -4.31

Ask: For the variant GACCAAUCUGCCCUCAGAGCUCGAGAACAUCUUCGGAUGCAGAGGAGGCAGGCUUCGGUGGCGCGAUAGAGCCAACGUCCUAAACCUCCAAUGCAUCCCACCACAUGAUGAUGCCUGAAGAGCCUUGGUUUUUUG [C70A C82A] , give its reported polymerase ribozyme fitness (log ratio).
Result: -1.54
